Please provide measured AUC for the entries that follow.
assay: Determination of compound Cmax and AUC after oral gavage (plasma LC-MS/MS)
Format: in vivo, Sprague-Dawley rats
experimental.context: Sprague-Dawley, rat, plasma, po, Structure (I) examples, Table 15, actual oral dose 3-15 mg/kg, plasma 0.5-4 h

Report AUC for every entry below.
1. CCN(CC)c1ccc(NC(=O)c2cccc(C(=O)N(C)CCOCCOCCOCCC(=O)O)c2)c(-c2cc(C(=O)NCc3cccc(C(F)(F)F)c3)ccn2)c1
2. CCN(CC)c1ccc(NC(=O)c2cccc(CSCCOCCOCCOCCOCCOCCOCCOCCOCCC(=O)O)c2)c(-c2cc(C(=O)NCc3cccc(C(F)(F)F)c3)ccn2)c1
3. COCCN(C)C(=O)N1CCN(CCN(C)Cc2cccc(C(=O)Nc3ccc(N4CCCCC4)cc3-c3cc(C(=O)NCc4cccc(C(F)(F)F)c4)ccn3)c2)CC1
4. CCN(CC)c1ccc(NC(=O)c2cccc(CSCCOCCOCCOCCOCCC(=O)NC(CO)(CO)CO)c2)c(-c2cc(C(=O)N[C@H]3CCCc4ccccc43)ccn2)c1
5. CCN(CC)c1ccc(NC(=O)c2cccc(C(=O)N(C)CCN(C)CCOCCOCCOCCNC(=O)OC(C)(C)C)c2)c(-c2cc(C(=O)N[C@H]3CCCc4ccccc43)ccn2)c1
6. COCCOCCOCCOCCOCCOCCOCCNC(=O)[C@H]1CCCN(C(=O)c2cccc(C(=O)Nc3ccc(N4CCCCC4)cc3-c3cc(C(=O)N[C@H]4CCCc5ccccc54)ccn3)c2)C1
7. CCN(CC)c1ccc(NC(=O)c2cccc(CSCCOCCOCCOCCOCCC(=O)NCCOCCOCCOCCOCCOCCOCCOCCOC)c2)c(-c2cc(C(=O)NCc3cccc(C(F)(F)F)c3)ccn2)c1

1. < 10 ng·h/mL
2. < 10 ng·h/mL
3. < 30 ng·h/mL
4. < 10 ng·h/mL
5. < 30 ng·h/mL
6. < 10 ng·h/mL
7. < 30 ng·h/mL
